The measured values listed here are drawn from ChEMBL document CHEMBL3352485.

- assaySystem: UniProtKB Q969F8
- Sequence (Q969F8 whole entry): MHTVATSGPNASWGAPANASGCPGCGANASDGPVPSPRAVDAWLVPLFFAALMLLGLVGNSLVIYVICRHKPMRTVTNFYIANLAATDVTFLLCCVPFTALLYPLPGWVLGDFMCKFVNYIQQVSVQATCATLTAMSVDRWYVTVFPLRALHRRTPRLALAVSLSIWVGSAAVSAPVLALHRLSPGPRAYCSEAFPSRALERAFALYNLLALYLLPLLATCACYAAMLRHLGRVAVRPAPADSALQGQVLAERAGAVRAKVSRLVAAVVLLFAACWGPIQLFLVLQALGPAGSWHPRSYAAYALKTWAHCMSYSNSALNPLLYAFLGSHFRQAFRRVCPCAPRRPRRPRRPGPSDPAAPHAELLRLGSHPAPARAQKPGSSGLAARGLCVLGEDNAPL
- testMethodNotes: Agonist activity at human KISS1R transfected in CHO cells assessed as intracellular calcium flux after 24 hrs by functional FLIPR assay
Record form. Attribute: EC50. Fill in for each entry.
Numbers only, in nM.

>>> quantitativeresult("CNC(=N)NCCC[C@H](NC(=O)[C@H](CC(C)C)NC(=O)NNC(=O)[C@H](Cc1ccccc1)NC(=O)[C@@H](NC(=O)[C@H](CC(N)=O)NC(=O)[C@@H](Cc1c[nH]c2ccccc12)NC(=O)CCc1ccc(O)cc1)[C@@H](C)O)C(=O)N[C@@H](Cc1c[nH]c2ccccc12)C(N)=O")
0.3

// below: EC50 requested for another compound
In: Entry CNC(=N)NCCC[C@H](NC(=O)[C@H](CC(C)C)NC(=O)NNC(=O)[C@H](Cc1ccccc1)NC(=O)[C@H](Cc1c[nH]c2ccccc12)NC(=O)[C@H](CC(N)=O)NC(=O)[C@@H](Cc1ccncc1)NC(=O)[C@H](N)Cc1ccc(O)cc1)C(=O)N[C@@H](Cc1c[nH]c2ccccc12)C(N)=O : reported EC50 = ?
Out: 0.59

---

- assaySystem: UniProt:Q969F8
- testMethodNotes: Agonist activity at human KISS1R transfected in CHO cells assessed as intracellular calcium flux after 24 hrs by functional FLIPR assay
measurementName: EC50 (nM)
Give bare numbers, in nM.

>>> quantitativeresult("CNC(=N)NCCC[C@H](NC(=O)[C@H](CC(C)C)NC(=O)NNC(=O)[C@H](Cc1ccccc1)NC(=O)[C@H](CO)NC(=O)[C@@H](NC(=O)[C@@H](Cc1ccncc1)NC(=O)[C@H](N)Cc1ccc(O)cc1)[C@@H](C)O)C(=O)N[C@@H](Cc1c[nH]c2ccccc12)C(N)=O")
1.3
>>> quantitativeresult("CNC(=N)NCCC[C@H](NC(=O)[C@H](CC(C)C)NC(=O)NNC(=O)[C@H](Cc1ccccc1)NC(=O)[C@@H](NC(=O)[C@H](CC(N)=O)NC(=O)[C@@H](Cc1c[nH]c2ccccc12)NC(=O)[C@@H](Cc1ccc(O)cc1)NC(=O)C1CC1)[C@@H](C)O)C(=O)N[C@@H](Cc1c[nH]c2ccccc12)C(N)=O")
0.82
>>> quantitativeresult("CNC(=N)NCCC[C@H](NC(=O)[C@H](CC(C)C)NC(=O)NNC(=O)[C@H](Cc1ccccc1)NC(=O)[C@@H](NC(=O)[C@H](CC(N)=O)NC(=O)[C@@H](Cc1ccncc1)NC(=O)[C@H](N)Cc1ccc(O)cc1)C(C)C)C(=O)N[C@@H](Cc1c[nH]c2ccccc12)C(N)=O")
1.8

In: Form: Entry = CNC(=N)NCCC[C@H](NC(=O)[C@H](CC(C)C)NC(=O)NNC(=O)[C@H](Cc1ccccc1)NC(=O)[C@H](CO)NC(=O)[C@H](CC(N)=O)NC(=O)[C@@H](Cc1c[nH]c2ccccc12)NC(=O)[C@H](N)Cc1ccc(O)cc1)C(=O)N[C@@H](Cc1c[nH]c2ccccc12)C(N)=O | System = UniProt:Q969F8 | EC50 = ____
Out: 0.51

---

- Test system: Rattus norvegicus
- testMethodNotes: Testosterone-suppressive activity in Crl:CD(SD) rat assessed as number of animal with plasma testosterone level below the limit of detection at 0.1 nmol/hr, sc through osmotic pumps measured after 6 days by RIA
- Type: functional
Where a SMILES comes first, the peptide text is derived from it. [ ]: non-standard residue; d: D form. Arg(Me) = CNC(=N)NCCC[C@H](N)C(=O)O; d4Pal = N[C@H](Cc1ccncc1)C(=O)O; azaGly = NNC(=O)O
measurementName: Activity

Here's what some known entries look like.
>>> result("CNC(=N)NCCC[C@H](NC(=O)[C@H](CC(C)C)NC(=O)NNC(=O)[C@H](Cc1ccccc1)NC(=O)[C@H](CO)NC(=O)[C@H](CC(N)=O)NC(=O)[C@@H](Cc1ccncc1)NC(=O)[C@H](N)Cc1ccc(O)cc1)C(=O)N[C@@H](Cc1c[nH]c2ccccc12)C(N)=O")
"0 rats (n = 5)"
>>> result("CNC(=N)NCCC[C@H](NC(=O)[C@H](CC(C)C)NC(=O)NNC(=O)[C@H](Cc1ccccc1)NC(=O)[C@@H](NC(=O)[C@H](CC(N)=O)NC(=O)[C@@H](Cc1c[nH]c2ccccc12)NC(=O)CCc1ccc(O)cc1)[C@@H](C)O)C(=O)N[C@@H](Cc1c[nH]c2ccccc12)C(N)=O")
"100%"
>>> result("CNC(=N)NCCC[C@H](NC(=O)[C@H](CC(C)C)NC(=O)NNC(=O)[C@H](Cc1ccccc1)NC(=O)[C@H](CO)NC(=O)[C@H](CC(N)=O)NC(=O)[C@@H](Cc1ccncc1)NC(=O)[C@H](N)Cc1ccc(O)cc1)C(=O)N[C@@H](Cc1ccccc1)C(N)=O [KISS1-305] (H-[dY][d4Pal]NSF[azaGly]L[Arg(Me)]F-NH2)")
"0 rats (n = 5)"
>>> result("CNC(=N)NCCC[C@H](NC(=O)[C@H](CC(C)C)NC(=O)NNC(=O)[C@H](Cc1ccccc1)NC(=O)[C@@H](NC(=O)[C@H](CC(N)=O)NC(=O)[C@@H](Cc1c[nH]c2ccccc12)NC(=O)[C@H](N)Cc1ccc(O)cc1)[C@@H](C)O)C(=O)N[C@@H](Cc1c[nH]c2ccccc12)C(N)=O")
"0 rats (n = 5)"
>>> result("CNC(=N)NCCC[C@H](NC(=O)[C@H](CC(C)C)NC(=O)NNC(=O)[C@H](Cc1ccccc1)NC(=O)[C@@H](NC(=O)[C@H](CC(N)=O)NC(=O)[C@@H](Cc1c[nH]c2ccccc12)NC(=O)[C@@H](Cc1ccc(O)cc1)NC(=O)c1ccccc1)[C@@H](C)O)C(=O)N[C@@H](Cc1c[nH]c2ccccc12)C(N)=O")
"0 rats (n = 5)"

Okay, here is my list. What is Activity for each of these?
1. CNC(=N)NCCC[C@H](NC(=O)[C@H](CC(C)C)NC(=O)NNC(=O)[C@H](Cc1ccccc1)NC(=O)[C@H](CO)NC(=O)[C@H](CC(N)=O)NC(=O)[C@@H](Cc1c[nH]c2ccccc12)NC(=O)[C@H](N)Cc1ccc(O)cc1)C(=O)N[C@@H](Cc1c[nH]c2ccccc12)C(N)=O
2. CCCC(=O)N[C@H](Cc1ccc(O)cc1)C(=O)N[C@H](Cc1c[nH]c2ccccc12)C(=O)N[C@@H](CC(N)=O)C(=O)N[C@H](C(=O)N[C@@H](Cc1ccccc1)C(=O)NNC(=O)N[C@@H](CC(C)C)C(=O)N[C@@H](CCCNC(=N)NC)C(=O)N[C@@H](Cc1c[nH]c2ccccc12)C(N)=O)[C@@H](C)O

Out:
1. 0 rats (n = 5)
2. 3 rats (n = 5)

---

- assaySystem: KiSS-1 receptor (Rattus norvegicus, UniProt Q924U1)
- Sequence (Q924U1 whole entry): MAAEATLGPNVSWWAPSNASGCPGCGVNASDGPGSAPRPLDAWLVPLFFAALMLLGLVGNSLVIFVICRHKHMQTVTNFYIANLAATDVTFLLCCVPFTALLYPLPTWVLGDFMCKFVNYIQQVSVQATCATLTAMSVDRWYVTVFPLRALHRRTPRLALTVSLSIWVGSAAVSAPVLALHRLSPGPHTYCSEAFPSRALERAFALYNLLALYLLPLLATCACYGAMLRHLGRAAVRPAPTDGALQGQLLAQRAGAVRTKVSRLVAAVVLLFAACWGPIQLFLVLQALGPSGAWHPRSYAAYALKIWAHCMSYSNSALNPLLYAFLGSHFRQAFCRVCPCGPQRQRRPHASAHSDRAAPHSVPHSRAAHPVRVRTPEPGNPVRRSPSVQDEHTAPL
- testMethodNotes: Agonist activity at rat KISS1R transfected in CHO cells assessed as intracellular calcium flux after 24 hrs by functional FLIPR assay
- Format: cell-based
Record form. Attribute: pEC50. Fill in for each entry.
Answers are plain numbers, as −log10 of the molar value.

Here's what some known entries look like.
>>> quantitativeresult("CNC(=N)NCCC[C@H](NC(=O)[C@H](CC(C)C)NC(=O)NNC(=O)[C@H](Cc1ccccc1)NC(=O)[C@@H](NC(=O)[C@H](CC(N)=O)NC(=O)[C@@H](Cc1c[nH]c2ccccc12)NC(=O)[C@@H](Cc1ccc(O)cc1)NC(=O)C1CC1)[C@@H](C)O)C(=O)N[C@@H](Cc1c[nH]c2ccccc12)C(N)=O")
8.38
>>> quantitativeresult("CCCC(=O)N[C@H](Cc1ccc(O)cc1)C(=O)N[C@H](Cc1c[nH]c2ccccc12)C(=O)N[C@@H](CC(N)=O)C(=O)N[C@H](C(=O)N[C@@H](Cc1ccccc1)C(=O)NNC(=O)N[C@@H](CC(C)C)C(=O)N[C@@H](CCCNC(=N)NC)C(=O)N[C@@H](Cc1c[nH]c2ccccc12)C(N)=O)[C@@H](C)O")
8.43

Okay, here is my list. What is pEC50 for each of these?
1. CNC(=N)NCCC[C@H](NC(=O)[C@H](CC(C)C)NC(=O)NNC(=O)[C@H](Cc1ccccc1)NC(=O)[C@@H](NC(=O)[C@H](CC(N)=O)NC(=O)[C@@H](Cc1ccncc1)NC(=O)[C@H](N)Cc1ccc(O)cc1)[C@@H](C)O)C(=O)N[C@@H](Cc1c[nH]c2ccccc12)C(N)=O
2. CNC(=N)NCCC[C@H](NC(=O)[C@H](CC(C)C)NC(=O)NNC(=O)[C@H](Cc1ccccc1)NC(=O)[C@@H](NC(=O)[C@H](CC(N)=O)NC(=O)[C@@H](Cc1c[nH]c2ccccc12)NC(=O)[C@H](N)Cc1ccc(O)cc1)C(C)C)C(=O)N[C@@H](Cc1c[nH]c2ccccc12)C(N)=O
3. CNC(=N)NCCC[C@H](NC(=O)[C@H](CC(C)C)NC(=O)NNC(=O)[C@H](Cc1ccccc1)NC(=O)[C@@H](NC(=O)[C@H](CC(N)=O)NC(=O)[C@@H](Cc1ccncc1)NC(=O)[C@H](N)Cc1ccc(O)cc1)C(C)(C)C)C(=O)N[C@@H](Cc1c[nH]c2ccccc12)C(N)=O
4. CNC(=N)NCCC[C@H](NC(=O)[C@H](CC(C)C)NC(=O)NNC(=O)[C@H](Cc1ccccc1)NC(=O)[C@@H](NC(=O)[C@H](CC(N)=O)NC(=O)[C@@H](Cc1c[nH]c2ccccc12)NC(=O)[C@H](N)Cc1ccc(O)cc1)[C@@H](C)O)C(=O)N[C@@H](Cc1c[nH]c2ccccc12)C(N)=O

Out:
8.24
8.66
7.66
8.39

In: Entry CNC(=N)NCCC[C@H](NC(=O)[C@H](CC(C)C)NC(=O)NNC(=O)[C@H](Cc1ccccc1)NC(=O)[C@H](Cc1c[nH]c2ccccc12)NC(=O)[C@H](CC(N)=O)NC(=O)[C@@H](Cc1ccncc1)NC(=O)[C@H](N)Cc1ccc(O)cc1)C(=O)N[C@@H](Cc1c[nH]c2ccccc12)C(N)=O : reported pEC50 = ?
Out: 8.13
